assay: in vitro; format: cell-based; conditions: human; HepG2 2.2.15 cells, secondary assay
EXPERIMENTAL_ENDPOINT: CC50 at 6 days (µM)
Answer in µM, number only, no unit symbol.

Ask: Tell me measured CC50 at 6 days for CC(C)CCOC(=O)C[C@H](NP(=O)(CO[C@H]1CO[C@@H](n2cnc3c(N)ncnc32)C1)Oc1ccccc1)C(=O)OCCC(C)C (stereo partly shown) please.
Result: 35.2

// provenance: patent US10087209B2
